# Test system: Pseudomonas aeruginosa
# assay.name: MIC against clinical isolates
# Assay type: cell-based
# measurement.setup: clinical isolate S-3; unit assumed
measured.attribute: MIC (µg/mL)

* CN1CCN(C(=O)NC(C(=O)NC2C(=O)N3C(C(=O)O)=C(CSc4nnnn4C)CSC23)c2ccccc2)C(=O)C1=O (single isomer, unassigned) | 100
* CCCCCCN1CCN(C(=O)N[C@@H](C(=O)N[C@@H]2C(=O)N3[C@@H]2SC(C)(C)[C@@H]3C(=O)O)c2ccccc2)C(=O)C1 | 100
* CN1CCN(C(=O)N[C@@H](C(=O)N[C@@H]2C(=O)N3C(C(=O)[O-])=C(C[n+]4ccccc4)CS[C@H]23)c2ccccc2)C(=O)C1=O | 25
* CCN1CCN(C(=O)NC(C(=O)NC2C(=O)N3C(C(=O)O)=C(CSc4nnnn4C)CSC23)c2ccccc2)C(=O)C1=O (stereo not drawn) | 50
* CC1(C)S[C@@H]2[C@H](NC(=O)C(c3ccccc3)S(=O)(=O)O)C(=O)N2[C@H]1C(=O)O (stereo partly drawn) [Sodium Sulbenicillin, SodiumSulbenicillin, reference compound] | 100

====

# Test system: Pseudomonas aeruginosa
# assay.name: MIC against clinical isolates
# Assay type: cell-based
# measurement.setup: clinical isolate GN 376; unit assumed
measured.attribute: MIC (µg/mL)

• CCN1CCN(C(=O)NC(C(=O)NC2C(=O)N3C(C(=O)O)=C(CSc4nnnn4C)CSC23)c2ccccc2)C(=O)C1=O (stereo not shown) [compound 69] = 12.5
• CCCCN1CCN(C(=O)N[C@@H](C(=O)N[C@@H]2C(=O)N3[C@@H]2SC(C)(C)[C@@H]3C(=O)O)c2ccccc2)C(=O)C1 [compound 14] = 50
• CCCCCCN1CCN(C(=O)N[C@@H](C(=O)N[C@@H]2C(=O)N3[C@@H]2SC(C)(C)[C@@H]3C(=O)O)c2ccccc2)C(=O)C1 [compound 13] = 50
• CCCCCCCCN1CCN(C(=O)N[C@@H](C(=O)N[C@@H]2C(=O)N3[C@@H]2SC(C)(C)[C@@H]3C(=O)O)c2ccccc2)C(=O)C1 [compound 16] = 25
• CC1(C)S[C@@H]2[C@H](NC(=O)C(c3ccccc3)S(=O)(=O)O)C(=O)N2[C@H]1C(=O)O (stereo partly shown) [Sodium Sulbenicillin, SodiumSulbenicillin, reference compound] = 50
• CCCCCN1CCN(C(=O)N[C@@H](C(=O)N[C@@H]2C(=O)N3[C@@H]2SC(C)(C)[C@@H]3C(=O)O)c2ccccc2)C(=O)C1=O (single isomer, unassigned) [compound 45] = 25
• CCCCCCCCN1CCN(C(=O)N[C@@H](C(=O)N[C@@H]2C(=O)N3[C@@H]2SC(C)(C)[C@@H]3C(=O)O)c2ccccc2)C(=O)C1=O (single isomer, unassigned) [compound 47] = 50
• CC(=O)OCC1=C(C(=O)O)N2C(=O)C(NC(=O)C(NC(=O)N3CCN(C)C(=O)C3=O)c3ccccc3)C2SC1 (single isomer, unassigned) [compound 60] = 50
• CCCCCCCCN1CCN(C(=O)N[C@@H](C(=O)N[C@@H]2C(=O)N3[C@@H]2SC(C)(C)[C@@H]3C(=O)O)c2ccccc2)CC1=O [compound 30] = 50
• CN1CCN(C(=O)N[C@@H](C(=O)N[C@@H]2C(=O)N3C(C(=O)[O-])=C(C[n+]4ccccc4)CS[C@H]23)c2ccccc2)C(=O)C1=O [compound 68] = 12.5

====

List of MIC values.
# Test system: Proteus vulgaris 3027
# assay.name: MIC against standard strain, plate method
# Type: cell-based
# measurement.setup: Proteus vulgaris 3027, standard strain; unit assumed
measured.attribute: MIC (µg/mL)

- Cc1ccc(C(=O)N2CCN(C(=O)N[C@@H](C(=O)N[C@@H]3C(=O)N4[C@@H]3SC(C)(C)[C@@H]4C(=O)O)c3ccccc3)C(=O)C2)cc1: 3.13
- Cc1nnc(SCC2=C(C(=O)O)N3C(=O)C(NC(=O)C(NC(=O)N4CCN(C)C(=O)C4=O)c4ccccc4)C3SC2)s1 (single isomer, unassigned): 3.13
- CC1(C)S[C@@H]2[C@H](NC(=O)[C@H](NC(=O)N3CCN(C(=O)C4CCCCC4)CC3=O)c3ccccc3)C(=O)N2[C@H]1C(=O)O: 3.13
- CC1(C)S[C@@H]2[C@H](NC(=O)[C@H](NC(=O)N3CCN(CCO)C(=O)C3)c3ccccc3)C(=O)N2[C@H]1C(=O)O: 25
- CC1(C)S[C@@H]2[C@H](NC(=O)[C@H](NC(=O)N3CCN(C(=O)C(Cl)Cl)CC3=O)c3ccccc3)C(=O)N2[C@H]1C(=O)O: 6.25
- CN1CCN(C(=O)NC(C(=O)NC2C(=O)N3C2SC(C)(C)C3C(=O)O)C2=CCC=CC2)C(=O)C1=O (stereo not drawn): 3.13
- CN1CCN(C(=O)NC(C(=O)N[C@@H]2C(=O)N3[C@@H]2SC(C)(C)[C@@H]3C(=O)O)c2cccs2)C(=O)C1=O (stereo partly drawn): 3.13
- C/C=C/CN1CCN(C(=O)N[C@@H](C(=O)N[C@@H]2C(=O)N3[C@@H]2SC(C)(C)[C@@H]3C(=O)O)c2ccccc2)CC1=O: 3.13

====

# System: Pseudomonas aeruginosa
# assay.name: MIC against clinical isolates
# Assay type: cell-based
# measurement.setup: clinical isolate S-2; unit assumed
measured.attribute: MIC

* CN1CCN(C(=O)NC(C(=O)NC2C(=O)N3C(C(=O)O)=C(CSc4nnnn4C)CSC23)c2ccccc2)C(=O)C1=O (single isomer, unassigned) [compound 63] | 100 µg/mL
* CCCCCCN1CCN(C(=O)N[C@@H](C(=O)N[C@@H]2C(=O)N3[C@@H]2SC(C)(C)[C@@H]3C(=O)O)c2ccccc2)C(=O)C1=O (single isomer, unassigned) [compound 46] | 50 µg/mL
* CCN1CCN(C(=O)N[C@@H](C(=O)N[C@@H]2C(=O)N3[C@@H]2SC(C)(C)[C@@H]3C(=O)O)c2ccccc2)C(=O)C1=O [compound 36] | 12.5 µg/mL
* CN1CCN(C(=O)N[C@@H](C(=O)N[C@@H]2C(=O)N3[C@@H]2SC(C)(C)[C@@H]3C(=O)O)c2ccccc2)C(=O)C1=O (single isomer, unassigned) [compound 37] | 25 µg/mL
* Cc1nnc(SCC2=C(C(=O)O)N3C(=O)C(NC(=O)C(NC(=O)N4CCN(C)C(=O)C4=O)c4ccccc4)C3SC2)s1 (single isomer, unassigned) [compound 62] | 200 µg/mL
* CCN1CCN(C(=O)NC(C(=O)NC2C(=O)N3C(C(=O)O)=C(COC(C)=O)CSC23)c2ccccc2)C(=O)C1=O (centres unmarked) [compound 61] | 50 µg/mL
* CCCCCCCCN1CCN(C(=O)N[C@@H](C(=O)N[C@@H]2C(=O)N3[C@@H]2SC(C)(C)[C@@H]3C(=O)O)c2ccccc2)C(=O)C1=O (single isomer, unassigned) [compound 47] | 50 µg/mL
* CC1(C)S[C@@H]2[C@H](NC(=O)[C@H](N)c3ccccc3)C(=O)N2[C@H]1C(=O)O [Sodium Ampicillin, SodiumAmpicillin, reference compound] | > 200 µg/mL

====

# Test system: Pseudomonas aeruginosa
# assay.name: MIC against clinical isolates
# Assay type: cell-based
# measurement.setup: clinical isolate GN 2565; unit assumed
measured.attribute: MIC (µg/mL)

- CC1(C)S[C@@H]2[C@H](NC(=O)C(C(=O)O)c3ccccc3)C(=O)N2[C@H]1C(=O)O (some centres unmarked) [Sodium Carbenicillin, SodiumCarbenicillin, reference compound]: 200
- CCCCCCN1CCN(C(=O)N[C@@H](C(=O)N[C@@H]2C(=O)N3[C@@H]2SC(C)(C)[C@@H]3C(=O)O)c2ccccc2)C(=O)C1: 50
- CN1CCN(C(=O)N[C@@H](C(=O)N[C@@H]2C(=O)N3C(C(=O)[O-])=C(C[n+]4ccccc4)CS[C@H]23)c2ccccc2)C(=O)C1=O: 50
- CC(C)N1CCN(C(=O)N[C@@H](C(=O)N[C@@H]2C(=O)N3[C@@H]2SC(C)(C)[C@@H]3C(=O)O)c2ccccc2)C(=O)C1=O (single isomer, unassigned): 12.5
- CCCCCCN1CCN(C(=O)N[C@@H](C(=O)N[C@@H]2C(=O)N3[C@@H]2SC(C)(C)[C@@H]3C(=O)O)c2ccccc2)C(=O)C1=O (single isomer, unassigned): 12.5

====

# System: Proteus vulgaris 3027
# assay.name: MIC against standard strain, plate method
# Format: cell-based
# measurement.setup: Proteus vulgaris 3027, standard strain; unit assumed
measured.attribute: MIC (µg/mL)

- CC1(C)S[C@@H]2[C@H](NC(=O)C(c3ccccc3)S(=O)(=O)O)C(=O)N2[C@H]1C(=O)O (stereo partly drawn) [Sodium Sulbenicillin, SodiumSulbenicillin, reference compound]: 0.79
- CN1CCN(C(=O)N[C@@H](C(=O)N[C@@H]2C(=O)N3[C@@H]2SC(C)(C)[C@@H]3C(=O)OCCN2CCCCC2)c2ccccc2)C(=O)C1=O (single isomer, unassigned) [compound 53]: 0.79
